I'd be grateful if you could share measured EC50 for these entries.
System: HCV genotype 1b
Assay: HCV 1b replicon luciferase assay
Assay type: cell-based
Conditions: Hepatitis C virus, Huh-7, 48 h, Table 1; Huh7 HCV 1b replicon, luciferase reporter, 48 hours; read-out: 1b EC50
Protocol: A suitable 1b HCV RNA replicon assay uses the Huh7 cell line which contains an HCV 1b RNA replicon with a stable luciferase (LUC) reporter. This construct contains modifications that make the cell line more robust and provides stable LUC expression for antiviral screening. […] Remove the 96-well assay plate from the 37° C./5% CO2 incubator, examine the cell morphology under an inverted microscope. […] Measure the luminescence with Envision (Perkin Elmer) with an integration time of 2 seconds. […]
The figure you give is taken to be in µM; do not add the unit.

Input line: Consider the molecule O=C(NC1CCCNC1)c1nn(-c2ccccc2)c2nc(N3CCCCCC3)ccc12 (stereo not drawn) and give its measured EC50.
Output line: 5

Input line: And the next one, `CCC(CC)Oc1ccc2c(NC(=O)C3CC(C)(C)NC(C)(C)C3)nn(C)c2n1` ?
Output line: 7.9

Input line: And the next one, `Cn1nc(CNC2CCNCC2)c2ccc(N3CCCCCC3)nc21` ?
Output line: 4.7

Input line: And the next one, `Cn1nc(CCCN2CC=CC2)c2ccc(N3CCCCCCC3)nc21` ?
Output line: 2.6

Input line: And the next one, `C[C@@H]1CCCN1CCCc1nn(C)c2nc(N3CCCCCCC3)ccc12` ?
Output line: 4

Input line: And the next one, `Cn1nc(C(=O)NC2CCNCC2)c2ccc(OCc3ccccc3)nc21` ?
Output line: 2.9

Input line: And the next one, `Cn1nc(C(=O)N[C@H]2C[C@H]3CC[C@@H](C2)N3)c2ccc(N3CCCCCC3)nc21` ?
Output line: 2.2

Input line: And the next one, `CCn1nc(C(=O)NC2CCNCC2)c2ccc(N3CCCCCC3)nc21` ?
Output line: 3.7

Input line: And the next one, Cn1nc(-c2nnc(C3CCCCN3CC3CCCCC3)o2)c2ccc(N3CCCCCCC3)nc21 (stereo not drawn) ?
Output line: 0.66

Input line: And the next one, CC1CCC(C)N1CCCc1nn(C)c2nc(N3CCCCCCC3)ccc12 (stereo not drawn) ?
Output line: 1.2

Input line: And the next one, `Cn1nc(C(=O)NC2CCN(C3CCCC3)CC2)c2ccc(N3CCCCCC3)nc21` ?
Output line: 2.8

Input line: And the next one, `Cn1nc(C(=O)NC2CCN(CCCC3CCCCC3)CC2)c2ccc(N3CCCCCC3)nc21` ?
Output line: 0.69

Input line: And the next one, `Cn1nc(C(=O)NC2CCN(Cc3ccc(-c4ccccc4)cc3)CC2)c2ccc(O)nc21` ?
Output line: 3.7

Input line: And the next one, `O=C(NC1CCNCC1)c1nn2c3nc(ccc13)OC/C=C\CCCCC2` ?
Output line: 7.5

Input line: And the next one, `Cn1nc(C(=O)NC2CCN(CCC(F)(F)F)CC2)c2ccc(N3CCCCCCC3)nc21` ?
Output line: 5.1

Input line: And the next one, CCC(CC)Oc1ccc2c(NC(=O)C3CCCNC3)nn(C)c2n1 (stereo not drawn) ?
Output line: 8.2

Input line: And the next one, `Cn1nc(C(=O)NC2CCNCC2)c2ccc(NC3CCCCCCC3)nc21` ?
Output line: 0.889

Input line: And the next one, O=C(Nc1n[nH]c2nc(N3CCCCCC3)ccc12)C1CCCNC1 (stereo not drawn) ?
Output line: 8.5

====

I'd be grateful if you could share measured EC50 for these entries.
system: HCV genotype 1b; experiment: HCV 1b replicon luciferase assay; format: cell-based; details: Hepatitis C virus, Huh-7, 48 h, Table 1; Huh7 HCV 1b replicon, luciferase reporter, 48 hours; read-out: 1b EC50
The figure you give is taken to be in µM; do not add the unit.

Input line: Consider the compound COCC1CCCCN1CCN1CCC(NC(=O)c2nn(C)c3nc(N4CCCCCC4)ccc23)CC1 (stereo not drawn) and give its measured EC50.
Output line: 0.45

Input line: And the next one, `Cn1nc(C(=O)NC2CCNCC2)c2cc(NC3CCCCC3)cnc21` ?
Output line: 9

Input line: And the next one, `Clc1ccc(Cn2nc(COCCCN3CCCCC3)c3ccc(N4CCCCCCC4)nc32)cc1` ?
Output line: 4

Input line: And the next one, CC1CCC(C)N1CCN1CCC(NC(=O)c2nn(C)c3nc(N4CCCCCC4)ccc23)CC1 (stereo not drawn) ?
Output line: 1.9

Input line: And the next one, `Cn1nc(NC(=O)C2CCCCC2)c2ccc(N3CCCCCC3)nc21` ?
Output line: 2.4

Input line: And the next one, `Cn1nc(-c2nnc([C@@H]3CCCN3CCN3CCCCC3)o2)c2ccc(N3CCCCCCC3)nc21` ?
Output line: 2.2

Input line: And the next one, `O=C(NC1CCN(CCN2CCCCC2)CC1)c1nn(CC(F)F)c2nc(N3CCCCCC3)ccc12` ?
Output line: 0.64

Input line: And the next one, Cn1nc(CCCN2CCCCC2CO)c2ccc(N3CCCCCCC3)nc21 (stereo not drawn) ?
Output line: 1.5

Input line: And the next one, Cn1nc(-c2cnc(C(=O)NC3CCCN(CCN4CCCCC4)C3)s2)c2ccc(N3CCCCCCC3)nc21 (stereo not drawn) ?
Output line: 0.55

Input line: And the next one, `Cn1nc(C(=O)NC2CCN(C3CCCCC3)CC2)c2ccc(N3CCCCCC3)nc21` ?
Output line: 1.8

Input line: And the next one, CC1CC(NC(=O)c2nnc3n(Cc4ccc(Cl)cc4)c(N4CCCCCC4)ccc2-3)CCN1 (stereo not drawn) ?
Output line: 6.1

Input line: And the next one, `Cn1nc(-c2cnc(C(=O)NCc3ccccc3)s2)c2ccc(N3CCCCCCC3)nc21` ?
Output line: 1.4

Input line: And the next one, CC1CC(NC(=O)c2nn(C)c3nc(N4CCCCCCC4)ccc23)CCN1CCCC1CCCCC1 (stereo not drawn) ?
Output line: 1.5

Input line: And the next one, `CC(C)n1nc(C(=O)NC2CCNCC2)c2ccc(N3CCCCCC3)nc21` ?
Output line: 3.1

Input line: And the next one, `Cn1nc(C(=O)NC2CCNCC2)c2ccc(N3CCCCC3)nc21` ?
Output line: 7.3

Input line: And the next one, `Cn1nc(C(=O)NC2CCNCC2)c2ccc(NC3CCCCCC3)nc21` ?
Output line: 1.1

Input line: And the next one, `Cn1nc(C(=O)NC2CCNCC2)c2ccc(OCc3ccc(-c4ccccc4)cc3)nc21` ?
Output line: 4.5

Input line: And the next one, `Cn1nc(C(=O)NC2CCN(S(C)(=O)=O)CC2)c2ccc(N3CCCCCC3)nc21` ?
Output line: 3.8

Input line: And the next one, `CC(C)N1CCC(NC(=O)c2nn(C)c3nc(N4CCCCCCC4)ccc23)CC1` ?
Output line: 1

Input line: And the next one, `CC(C)CN1CCC(NC(=O)c2nn(C)c3nc(NC4CCCCCCC4)ccc23)CC1` ?
Output line: 0.89

Input line: And the next one, `COC[C@@H]1CCCN1CCCc1nn(C)c2nc(N3CCCCCCC3)ccc12` ?
Output line: 4.7

====

I'd be grateful if you could share measured mouse liver microsome (MLM), % parent remaining for these entries.
experiment: Liver microsome stability, mouse; assay type: in vitro ADME, CD-1 mouse; conditions: after 60 min
The figure you give is taken to be in % parent remaining; do not add the unit.

Input line: Consider the compound Cn1nc(C(=O)NC2CCN(CCN3CCCCC3CO)CC2)c2ccc(N3CCCCCC3)nc21 (stereo not shown) and give its measured mouse liver microsome (MLM), % parent remaining.
Output line: 5

Input line: And the next one, Cn1nc(CCCN2CCCCC2CO)c2ccc(N3CCCCCCC3)nc21 (stereo not shown) ?
Output line: 0.3

Input line: And the next one, `CC(C)N1CCC(NC(=O)c2nn(C)c3nc(N4CCCCCC4)ccc23)CC1` ?
Output line: 14

Input line: And the next one, CC1CCCN1CCCc1nn(C)c2nc(N3CCCCCCC3)ccc12 (stereo not shown) ?
Output line: 0.3

Input line: And the next one, `Cn1nc(C(=O)NC2CCNCC2)c2ccc(N3CCCCCC3)nc21.O=C(O)C(F)(F)F.O=C(O)C(F)(F)F` ?
Output line: 44

Input line: And the next one, CCN1CCC(NC(=O)c2nn(C)c3nc(N4CCCCCC4)ccc23)CC1 [EBP1595] ?
Output line: 17

Input line: And the next one, CC1CCC(C)N1CCOCc1nn(C)c2nc(N3CCCCCC3)ccc12 (stereo not shown) ?
Output line: 10

Input line: And the next one, Cn1nc(C(=O)NC2CCN(CCN3CCCC3)CC2)c2ccc(N3CCCCCC3)nc21 [EBP1597] ?
Output line: 14

Input line: And the next one, Cn1nc(C(=O)NC2CCN(CCN3CCCCC3)CC2)c2ccc(N3CCCCCC3)nc21 [compound 1047] ?
Output line: 12

Input line: And the next one, `CCC(CC)Oc1ccc2c(C(=O)NC3CCNCC3)n[nH]c2n1` ?
Output line: 86

Input line: And the next one, Cn1nc(C(=O)NC2CCN(CCN3CCCCC3)CC2)c2ccc(N3CCCCCC3)nc21 [EBP1047] ?
Output line: 12

Input line: And the next one, Cn1nc(C(=O)NC2CCN(CCN3CCCC3)CC2)c2ccc(N3CCCCCC3)nc21 [compound 1597] ?
Output line: 14

Input line: And the next one, CCN1CCC(NC(=O)c2nn(C)c3nc(N4CCCCCC4)ccc23)CC1 [compound 1595] ?
Output line: 17

Input line: And the next one, `Cn1nc(CCCN2CCCC2)c2ccc(N3CCCCCCC3)nc21` ?
Output line: 1

Input line: And the next one, CC1CCCCN1CCOCc1nn(C)c2nc(N3CCCCCC3)ccc12 (stereo not shown) ?
Output line: 13

Input line: And the next one, `Cn1nc(C(=O)NC2CCN(CC(F)F)CC2)c2ccc(N3CCCCCC3)nc21` ?
Output line: 0.4
